test: Cytotoxicity against human FHCC-98 cells after 24 hrs by MTT assay; assay type: functional, cell-based; details: FHCC-98, 24 h
reported endpoint: IC50 (µM)
Report as a plain number; the unit µM is understood.

compound | reported endpoint | display unit | reported value
Oc1ccc(/C=C/c2cc(O)cc(O)c2)cc1 [RESVERATROL] | IC50 | µM | 95.2
CC[C@@]1(O)C(=O)OCc2c1cc1n(c2=O)Cc2cc3ccccc3nc2-1 [CAMPTOTHECIN] | IC50 | µM | 15.2
COc1cc(O)cc(/C=C/c2cccc(OC)c2OC)c1 [PHOYUNBENE D] | IC50 | µM | 80.5

[in] Name the reported IC50 value associated with the compound COc1cc(O)cc(/C=C/c2ccc(O)c(OC)c2OC)c1 [PHOYUNBENE B]
[out] 45.8

Source of measurements: ChEMBL document CHEMBL2010666
